This collection of values is drawn from ChEMBL document CHEMBL1145159.

experiment: Effective concentration against Nicotinic acetylcholine receptor alpha4-beta4 expressed in xenopus oocytes; assay type: cell-based; conditions: oocyte
pEC50: −log10 of the molar value.
quantity_name: pEC50

chemical_smiles	numeric_value
O=c1cccc2n1C[C@@H]1CNC[C@H]2C1	6.05
C[N+]1(C)CCN(c2ccccc2)CC1	4.34
CN1CCC[C@H]1c1cccnc1	5.30
CC(=O)OCC[N+](C)(C)C	4.70

---

target: Neuronal acetylcholine receptor subunit alpha-7 (Rattus norvegicus) (UniProt Q05941); experiment: Maximal response against Nicotinic acetylcholine receptor alpha 7
Sequence (Q05941 whole entry): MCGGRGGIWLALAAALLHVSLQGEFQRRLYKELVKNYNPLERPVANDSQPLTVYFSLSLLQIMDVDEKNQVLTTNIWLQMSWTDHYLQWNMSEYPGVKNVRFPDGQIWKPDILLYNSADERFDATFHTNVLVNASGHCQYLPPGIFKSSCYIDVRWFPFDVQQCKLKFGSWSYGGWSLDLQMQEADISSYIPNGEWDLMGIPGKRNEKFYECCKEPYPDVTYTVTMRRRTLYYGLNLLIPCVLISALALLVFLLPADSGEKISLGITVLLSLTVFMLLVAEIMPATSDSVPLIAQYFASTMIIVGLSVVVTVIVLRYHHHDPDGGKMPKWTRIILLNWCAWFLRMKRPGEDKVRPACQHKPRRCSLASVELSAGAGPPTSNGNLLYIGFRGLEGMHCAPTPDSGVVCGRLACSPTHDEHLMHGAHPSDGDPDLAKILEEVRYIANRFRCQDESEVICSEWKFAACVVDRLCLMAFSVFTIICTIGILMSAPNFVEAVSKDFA

molecule	tested_system	comparison_symbol	Rmax (%)
O=c1c(Br)ccc2n1C[C@@H]1CNC[C@H]2C1	Neuronal acetylcholine receptor subunit alpha-7 (Rattus norvegicus) (UniProt Q05941)	=	100
CN(C)c1ccc(/C=C/C=C2\CCCN=C2c2cccnc2)cc1	Neuronal acetylcholine receptor subunit alpha-7 (Rattus norvegicus) (UniProt Q05941)	=	76
O=C(NC1CN2CCC1CC2)c1ccc(-c2ccsc2)s1 (centres undefined)	Neuronal acetylcholine receptor subunit alpha-7 (Rattus norvegicus) (UniProt Q05941)	=	100
Clc1ccc(C2CC3CCC2N3)cn1 (centres undefined)	Neuronal acetylcholine receptor subunit alpha-7 (Rattus norvegicus) (UniProt Q05941)	=	97
C[N+]1(C)CCN(c2ccccc2)CC1	Neuronal acetylcholine receptor subunit alpha-7 (Rattus norvegicus) (UniProt Q05941)	=	54
O=c1c(I)ccc2n1C[C@@H]1CNC[C@H]2C1	Neuronal acetylcholine receptor subunit alpha-7 (Rattus norvegicus) (UniProt Q05941)	=	107
c1cncc(OC[C@@H]2CCN2)c1	Neuronal acetylcholine receptor subunit alpha-7 (Rattus norvegicus) (UniProt Q05941)	=	100
Clc1ccc(OC[C@@H]2CCN2)cn1	Neuronal acetylcholine receptor subunit alpha-7 (Rattus norvegicus) (UniProt Q05941)	=	85
CC(=O)CCN1C[C@@H]2C[C@H](C1)c1cccc(=O)n1C2	Neuronal acetylcholine receptor subunit alpha-7 (Rattus norvegicus) (UniProt Q05941)	>	100
O=C(NC1CN2CCC1CC2)c1ccc(-c2ccccn2)s1 (centres undefined)	Neuronal acetylcholine receptor subunit alpha-7 (Rattus norvegicus) (UniProt Q05941)	=	100
c1ccc(-c2cnc3c(c2)CC2(CN4CCC2CC4)O3)cc1 (centres undefined)	Neuronal acetylcholine receptor subunit alpha-7 (Rattus norvegicus) (UniProt Q05941)	=	85
Clc1ccc(C2=CCC[C@H]3CCC2N3)cn1	Neuronal acetylcholine receptor subunit alpha-7 (Rattus norvegicus) (UniProt Q05941)	=	55
Cc1ncccc1OC[C@@H]1CCN1	Neuronal acetylcholine receptor subunit alpha-7 (Rattus norvegicus) (UniProt Q05941)	>	1000
O=C1NCC2(CN3CCC2CC3)O1 (centres undefined)	Neuronal acetylcholine receptor subunit alpha-7 (Rattus norvegicus) (UniProt Q05941)	=	78

---

target: Neuronal acetylcholine receptor; alpha3/beta2 (Homo sapiens, UniProt P17787+P32297); assay: Effective concentration against Nicotinic acetylcholine receptor alpha3-beta2; type: protein-complex assay
Sequence (P32297 whole entry, one chain of several): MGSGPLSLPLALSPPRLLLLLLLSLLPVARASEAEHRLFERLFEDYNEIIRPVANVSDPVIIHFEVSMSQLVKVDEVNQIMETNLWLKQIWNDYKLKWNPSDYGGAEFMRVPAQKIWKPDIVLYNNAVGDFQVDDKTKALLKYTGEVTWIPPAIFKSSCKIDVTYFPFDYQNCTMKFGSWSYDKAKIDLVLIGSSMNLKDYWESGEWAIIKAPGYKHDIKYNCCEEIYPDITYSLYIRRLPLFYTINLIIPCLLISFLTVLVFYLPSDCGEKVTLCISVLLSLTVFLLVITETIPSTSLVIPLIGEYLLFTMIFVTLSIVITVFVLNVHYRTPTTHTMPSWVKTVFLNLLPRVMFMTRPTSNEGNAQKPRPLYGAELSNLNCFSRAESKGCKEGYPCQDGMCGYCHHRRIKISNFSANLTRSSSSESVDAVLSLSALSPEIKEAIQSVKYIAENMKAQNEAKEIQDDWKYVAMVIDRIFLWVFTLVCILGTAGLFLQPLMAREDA
quantity_name: EC50 (µM)

molecule	quantity_name	unit_descriptor	comparison_symbol	numeric_value
C#Cc1cncc([C@@H]2CCCN2C)c1	EC50	µM	=	3.2
CN1C2CC[C@@H]1CC2c1ccnnc1 (some centres undefined)	EC50	µM	=	0.013
c1cnc2c(c1)O[C@H]1CCN3CC[C@@]1(C2)C3	EC50	µM	>	100
c1ccc(-c2cnc3c(c2)CC2(CN4CCC2CC4)O3)cc1 (centres undefined)	EC50	µM	>	100

---

# maps each entry to its pEC50
experiment: Effective concentration against Nicotinic acetylcholine receptor alpha4-beta2 expressed in xenopus oocytes; format: cell-based; conditions: oocyte
pEC50: −log10 of the molar value.
quantity_name: pEC50

compound	quantity_name	comparison_symbol	numeric_value
CN1CCC[C@H]1c1cccnc1	pEC50	=	5.26
O=C1NCC2(CN3CCC2CC3)O1 (stereo not given)	pEC50	<	2.70
CC(=O)OCC[N+](C)(C)C	pEC50	=	4.17
C[N+]1(C)CCN(c2ccccc2)CC1	pEC50	=	4.74
O=c1cccc2n1C[C@@H]1CNC[C@H]2C1	pEC50	=	5.57

---

target: Neuronal acetylcholine receptor; alpha3/beta2 (Homo sapiens, UniProt P17787+P32297); assay: Maximal response against Nicotinic acetylcholine receptor alpha3-beta2 expressed in HEK293 cells; assay type: cell-based

molecule	tested_system	unit_descriptor	Rmax
CN1CCC[C@H]1c1cccnc1 [NICOTINE]	Neuronal acetylcholine receptor; alpha3/beta2 (Homo sapiens, UniProt P17787+P32297)	%	100
CC(=O)OCC[N+](C)(C)C [ACETYLCHOLINE]	Neuronal acetylcholine receptor; alpha3/beta2 (Homo sapiens, UniProt P17787+P32297)	%	150
O=c1cccc2n1C[C@@H]1CNC[C@H]2C1 [CYTISINICLINE]	Neuronal acetylcholine receptor; alpha3/beta2 (Homo sapiens, UniProt P17787+P32297)	%	55
Clc1ccc(C2CC3CCC2N3)cn1 (centres undefined)	Neuronal acetylcholine receptor; alpha3/beta2 (Homo sapiens, UniProt P17787+P32297)	%	163

---

# maps each entry to its Rmax
molecular target: Neuronal acetylcholine receptor; alpha4/beta2 (Homo sapiens, UniProt P17787+P43681); assay: Maximal response against Nicotinic acetylcholine receptor alpha4-beta2 expressed in HEK293 cells; type: cell-based
Sequence (P17787 whole entry): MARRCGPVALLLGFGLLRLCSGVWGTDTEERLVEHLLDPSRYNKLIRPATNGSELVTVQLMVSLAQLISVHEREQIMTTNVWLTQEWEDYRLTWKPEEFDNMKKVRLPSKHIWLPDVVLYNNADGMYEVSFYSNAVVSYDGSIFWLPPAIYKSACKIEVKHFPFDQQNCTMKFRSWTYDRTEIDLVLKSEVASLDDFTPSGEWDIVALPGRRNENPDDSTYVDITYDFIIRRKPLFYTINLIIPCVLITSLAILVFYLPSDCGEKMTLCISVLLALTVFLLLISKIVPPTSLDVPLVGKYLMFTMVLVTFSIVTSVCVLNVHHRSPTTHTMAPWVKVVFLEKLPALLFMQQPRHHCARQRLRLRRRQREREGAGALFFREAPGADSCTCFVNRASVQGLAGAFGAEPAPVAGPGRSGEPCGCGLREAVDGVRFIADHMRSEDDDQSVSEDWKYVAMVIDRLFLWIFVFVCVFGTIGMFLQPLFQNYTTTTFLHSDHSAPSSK
Sequence (P43681 whole entry): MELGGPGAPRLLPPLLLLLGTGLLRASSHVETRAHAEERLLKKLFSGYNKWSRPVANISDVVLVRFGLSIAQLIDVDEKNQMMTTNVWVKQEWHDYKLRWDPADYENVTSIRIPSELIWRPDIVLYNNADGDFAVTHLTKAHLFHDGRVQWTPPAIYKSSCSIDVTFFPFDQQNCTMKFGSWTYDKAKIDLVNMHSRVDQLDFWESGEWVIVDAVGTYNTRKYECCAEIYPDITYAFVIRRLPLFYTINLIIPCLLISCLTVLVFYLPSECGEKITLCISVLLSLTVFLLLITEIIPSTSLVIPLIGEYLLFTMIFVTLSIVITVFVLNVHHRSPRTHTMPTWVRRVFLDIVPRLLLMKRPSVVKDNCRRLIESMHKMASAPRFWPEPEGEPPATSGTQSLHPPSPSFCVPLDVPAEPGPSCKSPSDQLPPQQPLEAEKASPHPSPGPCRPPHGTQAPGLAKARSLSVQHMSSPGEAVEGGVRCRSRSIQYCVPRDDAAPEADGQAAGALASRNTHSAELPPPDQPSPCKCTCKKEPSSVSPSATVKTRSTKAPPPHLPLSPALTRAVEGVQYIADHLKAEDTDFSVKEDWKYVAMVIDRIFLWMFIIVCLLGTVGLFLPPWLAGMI

compound	tested_system	unit_descriptor	Rmax
CN1CCC[C@H]1c1cccnc1	Neuronal acetylcholine receptor; alpha4/beta2 (Homo sapiens, UniProt P17787+P43681)	%	3.5
CC(=O)OCC[N+](C)(C)C	Neuronal acetylcholine receptor; alpha4/beta2 (Homo sapiens, UniProt P17787+P43681)	%	172
O=c1cccc2n1C[C@@H]1CNC[C@H]2C1	Neuronal acetylcholine receptor; alpha4/beta2 (Homo sapiens, UniProt P17787+P43681)	%	42
Clc1ccc(C2CC3CCC2N3)cn1 (centres undefined)	Neuronal acetylcholine receptor; alpha4/beta2 (Homo sapiens, UniProt P17787+P43681)	%	117

---

molecular target: Neuronal acetylcholine receptor; alpha2/beta4 (Homo sapiens, UniProt P30926+Q15822); test: Effective concentration against Nicotinic acetylcholine receptor alpha2-beta4
Sequence (P30926 whole entry): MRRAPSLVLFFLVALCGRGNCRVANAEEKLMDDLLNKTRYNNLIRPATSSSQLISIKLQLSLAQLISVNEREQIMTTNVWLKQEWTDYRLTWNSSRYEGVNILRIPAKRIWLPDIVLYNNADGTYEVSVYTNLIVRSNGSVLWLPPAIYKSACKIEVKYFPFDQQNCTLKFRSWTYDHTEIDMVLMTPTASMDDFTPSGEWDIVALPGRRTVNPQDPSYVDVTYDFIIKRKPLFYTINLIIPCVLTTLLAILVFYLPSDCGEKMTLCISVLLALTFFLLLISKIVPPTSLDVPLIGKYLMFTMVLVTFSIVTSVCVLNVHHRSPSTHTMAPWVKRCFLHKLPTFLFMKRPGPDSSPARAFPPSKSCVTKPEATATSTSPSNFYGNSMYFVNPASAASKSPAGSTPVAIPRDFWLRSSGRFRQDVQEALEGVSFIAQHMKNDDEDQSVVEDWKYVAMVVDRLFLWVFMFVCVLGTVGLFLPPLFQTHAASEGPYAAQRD
Sequence (Q15822 whole entry): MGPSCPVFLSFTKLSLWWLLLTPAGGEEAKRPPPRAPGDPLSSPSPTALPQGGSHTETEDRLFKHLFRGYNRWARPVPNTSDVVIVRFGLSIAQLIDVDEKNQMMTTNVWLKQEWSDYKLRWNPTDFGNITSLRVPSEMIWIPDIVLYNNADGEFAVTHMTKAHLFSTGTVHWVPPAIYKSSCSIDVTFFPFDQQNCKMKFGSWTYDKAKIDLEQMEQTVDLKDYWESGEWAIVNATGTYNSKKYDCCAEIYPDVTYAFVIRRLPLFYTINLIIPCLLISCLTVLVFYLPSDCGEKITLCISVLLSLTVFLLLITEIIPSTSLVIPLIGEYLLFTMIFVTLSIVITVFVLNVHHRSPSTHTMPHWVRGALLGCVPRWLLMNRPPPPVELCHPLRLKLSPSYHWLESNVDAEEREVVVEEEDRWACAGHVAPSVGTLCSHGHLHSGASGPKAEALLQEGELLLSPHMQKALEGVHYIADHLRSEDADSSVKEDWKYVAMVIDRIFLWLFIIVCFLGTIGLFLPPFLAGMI

compound	comparison_symbol	EC50 (µM)
c1ccc(-c2cnc3c(c2)CC2(CN4CCC2CC4)O3)cc1 (configuration not stated)	>	100
C#Cc1cncc([C@@H]2CCCN2C)c1 [ALTINICLINE]	=	3.2

---

target: Neuronal acetylcholine receptor; alpha3/beta4 (Homo sapiens, UniProt P30926+P32297); assay: Maximal response against Nicotinic acetylcholine receptor alpha3-beta4; type: protein-complex assay
# maps each entry to its Rmax

molecule	comparison_symbol	Rmax (%)
c1cncc(OC[C@@H]2CCN2)c1	=	100
CCCC1CCCNC(c2cccnc2)C1 (centres undefined)	=	2
C[N+]1(C)CCN(c2ccccc2)CC1 [DIMETHYLPHENYLPIPERAZINIUM]	=	101
C#Cc1cncc([C@@H]2CCCN2C)c1 [ALTINICLINE]	=	52
COc1cc2c(cn1)C1NCCC1CC2 (centres undefined)	=	5
CC(=O)CCN1C[C@@H]2C[C@H](C1)c1cccc(=O)n1C2	=	11
Clc1ccc(OC[C@H]2CCN2)cn1	=	116
CN1CCC[C@H]1CCSc1ccc(O)cc1	=	71
Cc1ncccc1OC[C@@H]1CCN1	<	15
Clc1ccc(C2=CCC[C@H]3CCC2N3)cn1	=	50
Clc1ccc(OC[C@@H]2CCN2)cn1	=	166
c1cncc(C2CC3CCC2N3)c1 (centres undefined)	=	61
CCOc1cncc(/C=C/CCN)c1	=	55
Fc1ccc(C2CC3CCC2N3)cn1 (centres undefined)	=	40

---

experiment: Inhibitory concentration against Nicotinic acetylcholine receptor alpha2-beta4 expressed in xenopus oocytes; type: cell-based; settings: oocyte
pIC50: −log10 of the molar value.

compound	pIC50
COc1cc2c3cc1Oc1cccc(c1O)C[C@@H]1c4c(cc(OC)c(O)c4Oc4ccc(cc4)CC3N(C)CC2)CC[N+]1(C)C (some centres not stated)	5.38
CO[C@@H]1CC=C2CCN3CCC4=C(CC(=O)OC4)[C@@]23C1	5.44

---

molecular target: Neuronal acetylcholine receptor; alpha4/beta2 (Homo sapiens, UniProt P17787+P43681); assay: Effective concentration against Nicotinic acetylcholine receptor alpha4-beta2
# maps each entry to its EC50
quantity_name: EC50

compound	quantity_name	result
c1cnc2c(c1)O[C@H]1CCN3CC[C@@]1(C2)C3 [DIANICLINE]	EC50	> 100 µM
c1ccc(-c2cnc3c(c2)CC2(CN4CCC2CC4)O3)cc1 (configuration not stated)	EC50	> 100 µM
C#Cc1cncc([C@@H]2CCCN2C)c1 [ALTINICLINE]	EC50	0.32 µM
COc1ccc(/C=C2\CCCN=C2c2cccnc2)c(OC)c1 [GTS-21]	EC50	> 10 µM
CN1C2CC[C@@H]1CC2c1ccnnc1 (some centres not stated)	EC50	0.32 µM
O=C(NC1CN2CCC1CC2)c1ccc(-c2ccccn2)s1 (configuration not stated)	EC50	> 10 µM
O=C(NC1CN2CCC1CC2)c1ccc(-c2ccsc2)s1 (configuration not stated)	EC50	> 10 µM

---

# maps each entry to its Rmax
target: Neuronal acetylcholine receptor; alpha4/beta2 (Homo sapiens, UniProt P17787+P43681); experiment: Maximal response against Nicotinic acetylcholine receptor alpha4-beta2; assay type: protein-complex assay
quantity_name: Rmax (%)

molecule	tested_system	numeric_value
Clc1ccc(C2=CCC[C@H]3CCC2N3)cn1	Neuronal acetylcholine receptor; alpha4/beta2 (Homo sapiens, UniProt P17787+P43681)	15
CN1CCC[C@H]1CCSc1ccc(O)cc1	Neuronal acetylcholine receptor; alpha4/beta2 (Homo sapiens, UniProt P17787+P43681)	13
C[N+]1(C)CCN(c2ccccc2)CC1	Neuronal acetylcholine receptor; alpha4/beta2 (Homo sapiens, UniProt P17787+P43681)	90
CN1CCC[C@H]1c1cccnc1	Neuronal acetylcholine receptor; alpha4/beta2 (Homo sapiens, UniProt P17787+P43681)	73
Fc1ccc(C2CC3CCC2N3)cn1 (stereo unspecified)	Neuronal acetylcholine receptor; alpha4/beta2 (Homo sapiens, UniProt P17787+P43681)	41
CN[C@@H](C)C/C=C/c1cncc(OC(C)C)c1	Neuronal acetylcholine receptor; alpha4/beta2 (Homo sapiens, UniProt P17787+P43681)	60
COc1cc2c(cn1)C1NCCC1CC2 (stereo unspecified)	Neuronal acetylcholine receptor; alpha4/beta2 (Homo sapiens, UniProt P17787+P43681)	8
CC(=O)CCN1C[C@@H]2C[C@H](C1)c1cccc(=O)n1C2	Neuronal acetylcholine receptor; alpha4/beta2 (Homo sapiens, UniProt P17787+P43681)	3
Clc1ccc(OC[C@@H]2CCN2)cn1	Neuronal acetylcholine receptor; alpha4/beta2 (Homo sapiens, UniProt P17787+P43681)	161
c1cncc(C2CC3CCC2N3)c1 (stereo unspecified)	Neuronal acetylcholine receptor; alpha4/beta2 (Homo sapiens, UniProt P17787+P43681)	112
c1cnc2c(c1)O[C@H]1CCN3CC[C@@]1(C2)C3	Neuronal acetylcholine receptor; alpha4/beta2 (Homo sapiens, UniProt P17787+P43681)	19
